Catalogue of compounds with associated Euclidean distance
Test system: HEPG2
protocol: Euclidean distance of Cell Painting phenotypic profile (signed KS, 77 features) to DMSO centroid (dimensionless distance); 5 or 10 uM (library dependent); higher = stronger phenotypic change vs DMSO (phenoactivity)
setupConditions: 48 h
Structures can show the parent of a compound that is named as a salt.
attributeMeasured: Euclidean distance

- compound: "COC(=O)C1=CO[C@@H](O[C@@H]2O[C@H](CO)[C@@H](O)[C@H](O)[C@H]2O)[C@@H]2C(CO)=CC[C@H]12 [Geniposide]"
  attributeMeasured: "Euclidean distance"
  result: 0.616
- compound: "C1N2CN3CN1CN(C2)C3 [Methenamine]"
  attributeMeasured: "Euclidean distance"
  result: 0.586
- compound: "Cc1cc(C(=O)NOCCO)c(Nc2ccc(I)cc2F)n(C)c1=O"
  attributeMeasured: "Euclidean distance"
  result: 1.48
- compound: "CC(=O)NO [Acetohydroxamic acid]"
  attributeMeasured: "Euclidean distance"
  result: 0.648
- compound: "NC1(c2ccc(-c3nc4ccn5c(=O)[nH]nc5c4cc3-c3ccccc3)cc2)CCC1"
  attributeMeasured: "Euclidean distance"
  result: 2.59
- compound: "CN(C/C=C/C#CC(C)(C)C)Cc1cccc2ccccc12 [Terbinafine]"
  attributeMeasured: "Euclidean distance"
  result: 1.36
- compound: "CCOC(=O)c1c(N)sc2c1CCN(Cc1ccccc1)C2 [Tinoridine hydrochloride]"
  attributeMeasured: "Euclidean distance"
  result: 0.814
- compound: "CC12CCC(CC1)C(C)(C)O2 [Eucalyptol]"
  attributeMeasured: "Euclidean distance"
  result: 0.869
- compound: "CN1[C@@H]2CC[C@H]1C[C@@H](OC(=O)c1c[nH]c3ccccc13)C2 [Tropisetron HCl]"
  attributeMeasured: "Euclidean distance"
  result: 0.825
- compound: "NC1=NCC2c3ccccc3Cc3ccccc3N12 (centres undefined) [Epinastine HCl]"
  attributeMeasured: "Euclidean distance"
  result: 0.717
- compound: "COc1cc2nc(N3CCN(C(=O)C4CCCO4)CC3)nc(N)c2cc1OC (centres undefined) [Terazosin HCl]"
  attributeMeasured: "Euclidean distance"
  result: 1.33
- compound: "CC(C)CCCC(C)N (centres undefined) [Octodrine (2-Amino-6-methylheptan)]"
  attributeMeasured: "Euclidean distance"
  result: 1.34
- compound: "CC(C)C[C@H](NC(=O)[C@@H](NC(=O)c1cccc(-c2ccccc2)n1)[C@@H](C)O)B(O)O"
  attributeMeasured: "Euclidean distance"
  result: 4.77
- compound: "CCCCC1C(=O)N(c2ccccc2)N(c2ccccc2)C1=O [Phenylbutazone]"
  attributeMeasured: "Euclidean distance"
  result: 0.482
- compound: "CCN(CC)CCOCCOC(=O)C1(c2ccccc2)CCCC1 [Pentoxyverine Citrate]"
  attributeMeasured: "Euclidean distance"
  result: 0.353
- compound: "CCCCC1=NC2(CCCC2)C(=O)N1Cc1ccc(-c2ccccc2-c2nnn[nH]2)cc1 [Irbesartan]"
  attributeMeasured: "Euclidean distance"
  result: 0.777
- compound: "Nc1nc(Nc2ccc(S(N)(=O)=O)cc2)nn1C(=O)c1c(F)cccc1F"
  attributeMeasured: "Euclidean distance"
  result: 1.7
- compound: "C=CC(=O)Nc1cc(Nc2nccc(-c3cn(C)c4ccccc34)n2)c(OC)cc1N(C)CCN(C)C [Osimertinib (AZD9291)]"
  attributeMeasured: "Euclidean distance"
  result: 5.16
- compound: "CNC(=O)c1cc(Oc2ccc3nc(N[C@@H]4CCCC[C@H]4O)sc3c2)ccn1"
  attributeMeasured: "Euclidean distance"
  result: 0.898

###

System: FB
protocol: Euclidean distance of Cell Painting phenotypic profile (signed KS, 77 features) to DMSO centroid (dimensionless distance); 5 or 10 uM (library dependent); higher = stronger phenotypic change vs DMSO (phenoactivity)
setupConditions: 48 h
Structures can show the parent of a compound that is named as a salt.

- compound: "Nc1nc(OCc2ccccc2)c2nc[nH]c2n1"
  Euclidean distance: 1.41
- compound: "CC[C@H]1OC(=O)[C@H](C)[C@@H](O[C@H]2C[C@@](C)(OC)[C@@H](O)[C@H](C)O2)[C@H](C)[C@@H](O[C@@H]2O[C@H](C)C[C@H](N(C)C)[C@H]2O)[C@](C)(O)C[C@@H](C)CN(C)[C@H](C)[C@@H](O)[C@]1(C)O"
  Euclidean distance: 1.53
- compound: "CCCS(=O)(=O)Nc1ccc(F)c(C(=O)c2c[nH]c3ncc(-c4ccc(Cl)cc4)cc23)c1F"
  Euclidean distance: 1.23
- compound: "CC(=O)CCCCn1c(=O)c2c(ncn2C)n(C)c1=O"
  Euclidean distance: 1.39
- compound: "O=C(/C=C/c1ccc(O)c(O)c1)OCCc1ccccc1"
  Euclidean distance: 1.78
- compound: "CC(C)(CO)[C@@H](O)C(=O)NCCCO"
  Euclidean distance: 1.14
- compound: "COc1cc(C[C@H]2C(=O)OC[C@@H]2Cc2ccc(OC)c(OC)c2)ccc1O [(-)-Arctigenin]"
  Euclidean distance: 0.929
- compound: "Cc1nc(C#Cc2ccnc(Cl)c2)c(C)n1-c1ccc(OC(F)(F)F)cc1"
  Euclidean distance: 0.731
- compound: "CC(C)NCC(O)COc1ccc(CCOCC2CC2)cc1 (stereo not given)"
  Euclidean distance: 0.967
- compound: "Cc1nc(C)c(C)nc1C [Ligustrazine hydrochloride]"
  Euclidean distance: 0.693
- compound: "NCCCC[C@H](NC(=O)[C@@H](NC(=O)[C@H](Cc1c[nH]c2ccccc12)NC(=O)[C@H](CCCCN)NC(=O)[C@H](CCCCN)NC(=O)[C@H](Cc1c[nH]c2ccccc12)NC(=O)[C@H](Cc1c[nH]c2ccccc12)NC(=O)[C@H](CCCCN)NC(=O)[C@@H](N)CCCCN)C(c1ccccc1)c1ccccc1)C(N)=O"
  Euclidean distance: 1.8
- compound: "CS(=O)(=O)c1ccc(C2=C(c3ccccc3)C(=O)OC2)cc1"
  Euclidean distance: 0.821
- compound: "c1cnc2cc3c(cc2n1)[C@@H]1CNC[C@H]3C1 [Varenicline Tartrate]"
  Euclidean distance: 0.802
- compound: "Cc1cc(CC(C)CC(C)(C)C)n(O)c(=O)c1 (stereo not given)"
  Euclidean distance: 3.73
- compound: "Cc1nc(Nc2ncc(C(=O)Nc3c(C)cccc3Cl)s2)cc(N2CCN(CCO)CC2)n1 [Dasatinib Monohydrate]"
  Euclidean distance: 3.53

###

System: HEPG2
protocol: Euclidean distance of Cell Painting phenotypic profile (signed KS, 77 features) to DMSO centroid (dimensionless distance); 5 or 10 uM (library dependent); higher = stronger phenotypic change vs DMSO (phenoactivity)
setupConditions: 48 h
Where a name gives a salt, the structure may show the parent alone.
Hi, to clarify the labels: fulfilled covers Euclidean distance from 2 upward, not fulfilled covers anything below 2.

- compound: "CCN(CC)CCCC(C)Nc1c2ccc(Cl)cc2nc2ccc(OC)cc12 (configuration not stated) [Quinacrine 2HCl]"
  targetDesc: "HEPG2"
  cat: "fulfilled"
- compound: "Cc1ccc([N+](=O)[O-])cc1S(=O)(=O)N(C)/N=C/c1cnc2ccc(Br)cn12"
  targetDesc: "HEPG2"
  cat: "fulfilled"
- compound: "CC1(C)Cc2c(sc(NC(=O)c3ccn[nH]3)c2C(N)=O)C(C)(C)O1"
  targetDesc: "HEPG2"
  cat: "not fulfilled"
- compound: "CCOc1ccc(C[C@H]2NC(=O)CCSSC[C@@H](C(=O)N3CCC[C@H]3C(=O)N[C@@H](CCCN)C(=O)NCC(N)=O)NC(=O)[C@H](CC(N)=O)NC(=O)[C@H]([C@@H](C)O)NC(=O)[C@H]([C@@H](C)CC)NC2=O)cc1 [Atosiban Acetate]"
  targetDesc: "HEPG2"
  cat: "not fulfilled"
- compound: "Cc1ccc(N(CC2=NCCN2)c2cccc(O)c2)cc1 [Phentolamine Mesylate]"
  targetDesc: "HEPG2"
  cat: "not fulfilled"
- compound: "O=C1NC(=O)C(=Cc2ccc(-c3ccc(F)cc3)o2)S1 (stereo in doubt)"
  targetDesc: "HEPG2"
  cat: "not fulfilled"
- compound: "CC[C@@H]1C(=O)N(C)c2cnc(Nc3ccc(C(=O)N[C@H]4CC[C@H](N5CCN(CC6CC6)CC5)CC4)cc3OC)nc2N1C(C)C"
  targetDesc: "HEPG2"
  cat: "fulfilled"

###

System: FB
protocol: Euclidean distance of Cell Painting phenotypic profile (signed KS, 77 features) to DMSO centroid (dimensionless distance); 5 or 10 uM (library dependent); higher = stronger phenotypic change vs DMSO (phenoactivity)
setupConditions: 48 h
Structures can show the parent of a compound that is named as a salt.

- molecule: "Cn1cc(-c2ccc3c(c2)ncn3-c2cc(NS(=O)(=O)C3CC3)cc(-c3ccc(F)cc3F)c2)cn1"
  targetDesc: "FB"
  Euclidean distance: 4.3
- molecule: "CCOc1cc(N)c(Cl)cc1C(=O)NCC1CN(Cc2ccc(F)cc2)CCO1 (centres undefined) [Mosapride]"
  targetDesc: "FB"
  Euclidean distance: 1.33
- molecule: "CN[C@@H]1[C@@H](O[C@H]2O[C@H](CO)[C@@H](N)[C@H](O)[C@H]2O)OC2C[C@@H](N)[C@@H](O[C@H]3[C@H](O)[C@@H](O)[C@H](N)C[C@@H]3N)OC2[C@@H]1O (some centres undefined) [Apramycin Sulfate]"
  targetDesc: "FB"
  Euclidean distance: 1.27
- molecule: "COC(=O)[C@]12CCC(C)(C)C[C@H]1[C@H]1C(=O)C=C3[C@@]4(C)C=C(C#N)C(=O)C(C)(C)[C@@H]4CC[C@@]3(C)[C@]1(C)CC2"
  targetDesc: "FB"
  Euclidean distance: 2.1

Reference for the values: the supplement of paper PMC10127200
